Test system: MycoBacterium phiel 355
Assay: Minimum Inhibitory Concentration, agarwell diffusion assay (Table 6)
Type: cell-based
Conditions: Mycobacterium, 355, read-out: Minimum Inhibitory Concentration, MycoBacterium phiel 355
Description: (a) Lowest twofold dilution giving zone of inhibition in the agarwell (b) NRRL collection number, all the rest ate ATCC numbers.
measured.parameter: MIC (µg/mL)
Give the quantity in µg/mL, number only.

compound	test.target	MIC (µg/mL)
CCC1(C2OC(C3OC(O)(COC(=O)Nc4ccc(OC)cc4)C(C)CC3C)CC2C)CCC(C2(C)CCC3(CC(O)C(C)C(C(C)C(OC)C(C)C(=O)O)O3)O2)O1 (stereo not drawn)	MycoBacterium phiel 355	1.6
CCC1(C2OC(C3OC(O)(COC(=O)Nc4ccc(C(C)=O)cc4)C(C)CC3C)CC2C)CCC(C2(C)CCC3(CC(O)C(C)C(C(C)C(OC)C(C)C(=O)O)O3)O2)O1 (stereo not drawn)	MycoBacterium phiel 355	6.3
CCC1(C2OC(C3OC(O)(COC(=O)Nc4ccc(C)cc4)C(C)CC3C)CC2C)CCC(C2(C)CCC3(CC(O)C(C)C(C(C)C(OC)C(C)C(=O)O)O3)O2)O1 (stereo not drawn)	MycoBacterium phiel 355	1.6
CCC1(C2OC(C3OC(O)(COC(=O)Nc4ccccc4)C(C)CC3C)CC2C)CCC(C2(C)CCC3(CC(O)C(C)C(C(C)C(OC)C(C)C(=O)O)O3)O2)O1 (stereo not drawn)	MycoBacterium phiel 355	3.1
CCC1(C2OC(C3OC(O)(COC(=O)NC4CCCCC4)C(C)CC3C)CC2C)CCC(C2(C)CCC3(CC(O)C(C)C(C(C)C(OC)C(C)C(=O)O)O3)O2)O1 (stereo not drawn)	MycoBacterium phiel 355	3.1

-- ask Field: MIC (MycoBacterium phiel 355). Entry: CCC1(C2OC(C3OC(O)(COC(=O)Nc4ccc(Cl)cc4)C(C)CC3C)CC2C)CCC(C2(C)CCC3(CC(O)C(C)C(C(C)C(OC)C(C)C(=O)O)O3)O2)O1 (stereo not drawn)
-- reply 0.8

-- ask Field: MIC (MycoBacterium phiel 355). Entry: COC(C(C)C(=O)O)C(C)C1OC2(CCC(C)(C3CCC(C)(C4OC(C5OC(O)(COC(=O)NCCc6ccccc6)C(C)CC5C)CC4C)O3)O2)CC(O)C1C (stereo not drawn)
-- reply 25

-- ask Field: MIC (MycoBacterium phiel 355). Entry: CCC1(C2OC(C3OC(O)(COC(=O)Nc4ccc(Oc5ccccc5)cc4)C(C)CC3C)CC2C)CCC(C2(C)CCC3(CC(O)C(C)C(C(C)C(OC)C(C)C(=O)O)O3)O2)O1 (stereo not drawn)
-- reply 1.6

-- ask Field: MIC (MycoBacterium phiel 355). Entry: COC(C(C)C(=O)O)C(C)C1OC2(CCC(C)(C3CCC(C)(C4OC(C5OC(O)(COC(=O)NC(C)c6ccccc6)C(C)CC5C)CC4C)O3)O2)CC(O)C1C [Monensin B, (R)-1-phenethylurethane]
-- reply 12.5
